Tested on: Leishmania donovani
assay_text: Leishmania intramacrophage assay
Type: functional, organism-based
Parameters: scale not given: in the data most compounds retested in dose-response had high values
setup_conditions: 30.3 µM; […]
Screen size: about 69,000 compounds; about 1,000 (1.4%) showed an effect of 50% or more. Only a selection was taken, and strong results are over-represented in it overall.
measure: Percent Effect (%)
Please reply with the bare figure in % and do not write the unit itself.

State, in one line, measured Percent Effect of CN(Cc1cccnc1)[C@@H]1CN(C(=O)c2ccoc2)[C@@H]2CCCO[C@H]12.O=C(O)C(F)(F)F.O=C(O)C(F)(F)F
-5.312

State, in one line, measured Percent Effect of CC(=O)Nc1ncc(S(=O)(=O)Nc2cccc(C)c2)s1
11.84

State, in one line, measured Percent Effect of O=C(NCCN1CCCC1)c1cc2c(s1)CCN2c1ncccn1
35.65

State, in one line, measured Percent Effect of CCOc1cc(CNCCCn2ccnc2)cc(Cl)c1OCC
81.44

State, in one line, measured Percent Effect of CCN(Cc1cccc(Cl)c1)Cc1ncc(C(C)(C)C)o1
12.9

State, in one line, measured Percent Effect of Cc1cc(C)nc(NC(=O)NCCCSc2nncn2C)n1
12.59

State, in one line, measured Percent Effect of CCn1nc(C)c2ncnc(NCCn3cccn3)c21
-8.829

State, in one line, measured Percent Effect of COc1cc(CNCCn2ccnc2)cc2c1OCO2.Cl
27.41

State, in one line, measured Percent Effect of CCOc1ccc(CNCCCn2ccnc2)cc1OC
3.86

State, in one line, measured Percent Effect of CN(Cc1cccnc1)[C@@H]1CN(C(=O)CC2CC2)[C@@H]2CCCO[C@H]12.O=C(O)C(F)(F)F.O=C(O)C(F)(F)F
-10.3

State, in one line, measured Percent Effect of COCCCn1ccc(NC(=O)NCCCn2ccnc2)n1
2.018

State, in one line, measured Percent Effect of CC(C)(C)CNC(=O)c1ccc(C(=O)O)cn1
-11.9

State, in one line, measured Percent Effect of CC(c1ccccn1)N(C)Cc1ccc(CCC(C)(C)O)cc1 (stereo not given)
34.83

State, in one line, measured Percent Effect of CC(C)C(=O)NCCNC(=O)C(C)OCC(F)(F)F (stereo not given)
28.18

State, in one line, measured Percent Effect of CCC1(CO)CCN(C(=O)c2cc(COc3ccccc3F)[nH]n2)CC1
-10.91

State, in one line, measured Percent Effect of Cc1ccc2c(c1)OCCCC2NCc1nccn1CC(C)C (stereo not given)
9.865

State, in one line, measured Percent Effect of COc1c(C)cnc(CSc2nnc(NC3CC3)s2)c1C
13.54

State, in one line, measured Percent Effect of COC1COC2(CCN(C(=O)c3cocn3)CC2)C1 (stereo not given)
-1.503

State, in one line, measured Percent Effect of CCCc1cncnc1N1CCC(NCc2ccncc2)CC1
-13.54

State, in one line, measured Percent Effect of Cc1cnc(CNc2ccc(C(=O)NCc3ccco3)cc2C)o1
-20.82

State, in one line, measured Percent Effect of CC(=O)Nc1ncc(S(=O)(=O)Nc2cccc(F)c2)s1
-21.07

State, in one line, measured Percent Effect of CC(=O)Nc1nc(-c2ccc(F)cc2)c[nH]1
-6.024

State, in one line, measured Percent Effect of CC(C)(C)CNC(=O)c1ccc(C(=O)O)nc1
60.75

State, in one line, measured Percent Effect of O=C(c1cocn1)N1CCC[C@]2(C[C@@H](OCC3CC3)CO2)C1
14.29

State, in one line, measured Percent Effect of CC(C)COC(C)C(=O)NCCNS(C)(=O)=O (stereo not given)
50.97

State, in one line, measured Percent Effect of CC(=O)N1CCO[C@@H]2CN(Cc3ccccc3F)C[C@@H]2C1.O=C(O)C(F)(F)F
6.292

State, in one line, measured Percent Effect of COC(=O)N1CCCC(C(=O)Nc2nc(C)c(SC)s2)C1 (stereo not given)
9.664

State, in one line, measured Percent Effect of COC(=O)C(C)N1CCCc2cc(OC)ccc2C1 (stereo not given)
8.236

State, in one line, measured Percent Effect of O=C(c1ccc(O)c(Cl)c1)N1C[C@@H](CN2CCCCCC2)[C@@H](CO)C1
-29.45

State, in one line, measured Percent Effect of O=C(c1cocn1)N1CCC2(CC1)CC(OCC1CC1)CO2 (stereo not given)
52.58

State, in one line, measured Percent Effect of O=C(c1ccc(F)c(F)c1)N1CCC[C@]2(C[C@@H](OCC3CC3)CO2)C1
53.63

State, in one line, measured Percent Effect of Cc1nc(C)n(CC2CCCCN2CCCO)n1 (stereo not given)
-18.17

State, in one line, measured Percent Effect of CNC(=O)c1cc2c(nc1NCC1CC1)CCNCC2
-29.9

State, in one line, measured Percent Effect of C/C(=C\c1ccco1)CN(C)C(C)c1ccccn1 (stereo not given)
72.9

State, in one line, measured Percent Effect of CN1CCN(C(=O)c2cccc(S(=O)(=O)NCC3(C)COC3)c2)CC1
33.44

State, in one line, measured Percent Effect of COC(=O)Nc1nc2c(s1)CN(C(=O)NCc1cccs1)CC2
-0.9773

State, in one line, measured Percent Effect of Cc1cccc(CN(Cc2ccccn2)S(=O)(=O)N(C)C)c1
9.457

State, in one line, measured Percent Effect of O=C(NCCc1ccc(F)cc1)C1CN(C(=O)Cn2cncn2)C1
19.84

State, in one line, measured Percent Effect of CCC1(CO)CCCN(C(=O)c2cc(COc3cccc(F)c3)[nH]n2)C1 (stereo not given)
65.29

State, in one line, measured Percent Effect of COCCC1(CO)CCCN(Cc2cc(C(F)(F)F)ccc2F)C1 (stereo not given)
0.4261

###

Provide the recorded Percent Effect for the entries that follow.
Tested on: Leishmania donovani
assay_text: Leishmania intramacrophage assay
Assay type: functional, organism-based
Design: scale not given: in the data most compounds retested in dose-response had high values
setup_conditions: 30 µM
In all, about 69,000 compounds went through this assay and about 1,000 (1.4%) showed an effect of 50% or more. The sample holds strong results, similar compounds and a random draw of the others, so the mix is not that of the screen.
Please reply with the bare figure in % and do not write the unit itself.

State, in one line, measured Percent Effect of CC1CN(CC(=O)Nc2ccncc2)CCN1c1nccs1 (stereo not given)
51.62

State, in one line, measured Percent Effect of COc1ccc(CC(=O)N2CCCC(n3cccn3)C2)cc1F (stereo not given)
5.405

State, in one line, measured Percent Effect of Cc1nc2ccnn2c(C)c1CCC(=O)N1CCN(CCO)CC1
14.29

State, in one line, measured Percent Effect of COc1c(CNCc2ccc3c(c2)OCCO3)c(C(C)C)nn1C
-2.541

State, in one line, measured Percent Effect of CC(C)OCc1cccc(CNc2cnn(C)c(=O)c2Cl)c1
21.9

###

Test system: Leishmania donovani
assay_text: Leishmania intramacrophage assay
Type: functional, organism-based
Design: scale not given: in the data most compounds retested in dose-response had high values
setup_conditions: 30 µM; 30.03 µM
Out of some 69,000 compounds screened, about 1,000 (1.4%) showed an effect of 50% or more. The entries come from a sample that favours strong results as a whole.
Provide the recorded Percent Effect for the entries that follow.
Please reply with the bare figure in % and do not write the unit itself.

State, in one line, measured Percent Effect of COCCN1CC[C@@H]2O[C@@H](COCC(=O)N3CCCC3)CC[C@@H]21.O=C(O)C(F)(F)F
27.81

State, in one line, measured Percent Effect of O=S(=O)(c1ccccc1)N1CCCN(CCCn2ccnc2)CC1
52.87

State, in one line, measured Percent Effect of COc1c(CNC2CCSc3ccc(F)cc32)c(C)nn1C.Cl (centres undefined)
60.68

State, in one line, measured Percent Effect of Cc1ccc(C(=O)N2C[C@@H]3COC[C@]3(COc3cccnc3)C2)cn1
15.47

State, in one line, measured Percent Effect of COc1c(CNC2CCc3cc(F)ccc32)c(C)nn1C.Cl (centres undefined)
46.26

State, in one line, measured Percent Effect of Cc1ccc(N2CCCC(NCC(=O)NC3CCOCC3)C2)nn1 (centres undefined)
24.15

State, in one line, measured Percent Effect of O=C(Nc1ccccc1)C1CN(CC2CC2)CC12CCOCC2.O=C(O)C(F)(F)F (centres undefined)
52.69

State, in one line, measured Percent Effect of COCCCN(C)C1CCCN(Cc2noc(C)n2)C1 (centres undefined)
26.31

State, in one line, measured Percent Effect of Cc1c(C)n(-c2ccccn2)c2nc3c(c(N)c12)CCCC3
43.5

###

Provide the recorded Percent Effect for the entries that follow.
Test system: Leishmania donovani
assay_text: Leishmania intramacrophage assay
Assay type: functional, organism-based
Set-up: scale not given: in the data most compounds retested in dose-response had high values
setup_conditions: 30.3 µM; […]
The whole screen tested about 69,000 compounds, of which about 1,000 (1.4%) showed an effect of 50% or more. For the sample, strong results were picked, then their nearest neighbours and some compounds at random.
Please reply with the bare figure in % and do not write the unit itself.

State, in one line, measured Percent Effect of Cc1ccc(S(=O)(=O)N2CCN(CCC(N)=O)CC2)s1
13.04

State, in one line, measured Percent Effect of CN1CCN(C2COC3(CCN(Cc4cccs4)CC3)C2)CC1.O=C(O)C(F)(F)F.O=C(O)C(F)(F)F (centres undefined)
53.18

State, in one line, measured Percent Effect of CCc1cc(CN(C)C(=O)c2cnn[nH]2)on1
12.71

State, in one line, measured Percent Effect of O=C(CC1NC(N2CCc3ccccc3C2)=NC1=O)Nc1ccccc1 (centres undefined)
4.892

State, in one line, measured Percent Effect of c1nc2c(c(NC3COC4(CCCC4)C3)n1)CCNCC2 (centres undefined)
-7.058

State, in one line, measured Percent Effect of CC(C)=CCC1(C(=O)O)CCCN(CCC(=O)NC2CC2)C1 (centres undefined)
0.5122

State, in one line, measured Percent Effect of OCCN1CCC(CNCc2ccc(Br)cc2)CC1
77.88

State, in one line, measured Percent Effect of CCc1cc(CN(C)C(=O)c2cc(=O)[nH]c(=O)[nH]2)on1
53.82

State, in one line, measured Percent Effect of O=C(Cc1cc2c(cc1Br)OCCO2)NC1CCS(=O)(=O)C1 (centres undefined)
5.517

State, in one line, measured Percent Effect of Cc1cccc(-c2noc(CN3CCC(c4ccn[nH]4)CC3)n2)c1
43.8

State, in one line, measured Percent Effect of Cc1ccc(S(=O)(=O)N2CCN(CCCO)CC2)s1
55.51

State, in one line, measured Percent Effect of OCCN1CCC(CNCc2ccc(N3CCCCC3)cc2)CC1
79.78

State, in one line, measured Percent Effect of Cc1nccc(N[C@H]2CN(C(=O)CN3CCOCC3)C[C@@H]2C(C)C)n1
9.574

State, in one line, measured Percent Effect of CC(O)CN1CCN(C(=O)c2ccn(-c3ccc(F)cc3)n2)CC1 (centres undefined)
-32.18
